Tested on: Pasteurella multocida pm002
procedure summary: MIC broth microdilution, P. multocida pm002 (wild type)
Format: cell-based
measured endpoint: MIC (μg/ml) Broth microdilution (µg/mL)
Quick reminder: number only, in µg/mL, skip the unit.

Entry CC(C(NC(=O)C(Cc1ccc(F)cc1)NC(=O)NC(Cc1ccc(O)cc1)C(=O)O)C(=O)NCC1CC(O)C(n2ccc(=O)[nH]c2=O)O1)N(C)C(=O)C(N)Cc1ccc(F)cc1 (centres unmarked) : reported MIC (μg/ml) Broth microdilution = ? 512

Entry CC(C(NC(=O)C(Cc1ccccc1)NC(=O)NC(Cc1ccc(O)cc1)C(=O)O)C(=O)NCC1CC(O)C(n2ccc(=O)[nH]c2=O)O1)N(C)C(=O)C(N)Cc1ccccc1 (centres unmarked) : reported MIC (μg/ml) Broth microdilution = ? 256

Entry CSCCC(NC(=O)NC(Cc1ccc(O)cc1)C(=O)O)C(=O)NC(C(=O)NCC1CC(O)C(n2ccc(=O)[nH]c2=O)O1)C(C)N(C)C(=O)CN (centres unmarked) : reported MIC (μg/ml) Broth microdilution = ? 256

Entry CC(C(NC(=O)C(Cc1ccc(F)cc1)NC(=O)NC(Cc1c[nH]c2ccccc12)C(=O)O)C(=O)NCC1CC(O)C(n2ccc(=O)[nH]c2=O)O1)N(C)C(=O)C(N)Cc1ccccc1 (centres unmarked) : reported MIC (μg/ml) Broth microdilution = ? 512

Entry CC(C(NC(=O)C(Cc1ccc(F)cc1)NC(=O)NC(Cc1c[nH]c2ccccc12)C(=O)O)C(=O)NCC1CC(O)C(n2ccc(=O)[nH]c2=O)O1)N(C)C(=O)CN (centres unmarked) : reported MIC (μg/ml) Broth microdilution = ? 128

Entry C[C@H](N)C(=O)N(C)[C@@H](C)[C@H](NC(=O)[C@H](Cc1ccc(C(F)(F)F)cc1)NC(=O)N[C@@H](Cc1ccc(O)cc1)C(=O)O)C(=O)NC[C@H]1C[C@@H](O)[C@H](n2ccc(=O)[nH]c2=O)O1 : reported MIC (μg/ml) Broth microdilution = ? 512

Entry C[C@@H]([C@H](NC(=O)[C@H](Cc1ccccc1)NC(=O)N[C@@H](Cc1ccc(O)cc1)C(=O)O)C(=O)NC[C@H]1C[C@@H](O)[C@H](n2ccc(=O)[nH]c2=O)O1)N(C)C(=O)[C@@H](N)COCc1ccccc1 : reported MIC (μg/ml) Broth microdilution = ? 512

Entry CSCCC(N)C(=O)N(C)C(C)C(NC(=O)C(C)NC(=O)NC(Cc1c[nH]c2ccccc12)C(=O)O)C(=O)NCC1CC(O)C(n2ccc(=O)[nH]c2=O)O1 (centres unmarked) : reported MIC (μg/ml) Broth microdilution = ? 256

Entry CC(N)C(=O)N(C)C(C)C(NC(=O)C(Cc1ccccc1)NC(=O)NC(Cc1c[nH]c2ccccc12)C(=O)O)C(=O)NCC1CC(O)C(n2ccc(=O)[nH]c2=O)O1 (centres unmarked) : reported MIC (μg/ml) Broth microdilution = ? 128

Entry CC(C)CC(N)C(=O)N(C)C(C)C(NC(=O)C(Cc1ccccc1)NC(=O)NC(Cc1c[nH]c2ccccc12)C(=O)O)C(=O)NCC1CC(O)C(n2ccc(=O)[nH]c2=O)O1 (centres unmarked) : reported MIC (μg/ml) Broth microdilution = ? 128
